The reported numbers originate from patent US12448423.

Assignment: determine reported kon for the given binders.
Molecular target: T1, cynomolgus CD8 (captured on the Octet biosensor) (cynomolgus)
T1 construct: Construct not described; also called cyno CD8; cyno CD8a
Test: Octet (BLI); cynomolgus CD8 captured, dipped into multiple concentrations of the one-arm mAb
Your answer should be a plain number; it is taken to be in M⁻¹ s⁻¹.

q: Give the measured kon of XENP26230 (antibody, V domains shown, also called OKT8_H2.153_L1.103 one-arm mAb) VH: QVQLVQSGAEVKKPGASVKVSCKASGFNIKDTYIHWVRQAPGKGLEWMGRIDPDNGETLYASKFQGRVTMTADTSINTAYMELSRLRSDDTAVYYCGRGYGYYVFDHWGQGTTVTVSS VL: AIKMTQSPSSLSASVGDRVTITCRTSRSISKYLAWYQEKPGKTNKLLIYSGSTLQSGIPSRFSGSGSGTDFTLTISSLQPEDFATYYCQQHNENPLTFGAGTKLEIK .
a: 247000

q: Record: XENP26009 (antibody, V domains shown, also called OKT8_H2.152_L1.103 one-arm mAb) VH: QVQLVQSGAEVKKPGASVKVSCKASGFNIKDTYIHWVRQAPGKGLEWMGRIDPDNGETLYASKFQGRVTITADTSINTAYMELSRLRSDDTAVYYCGRGYGYYVFDHWGQGTTVTVSS VL: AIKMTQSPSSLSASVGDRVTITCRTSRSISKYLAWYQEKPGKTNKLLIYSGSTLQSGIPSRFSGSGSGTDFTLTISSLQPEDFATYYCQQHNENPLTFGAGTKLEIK
a: 117000

q: Record: XENP26234 (antibody, V domains shown, also called OKT8_H2.157_L1.103 one-arm mAb) VH: QVQLVQSGAEVKKPGASVKVSCKASGFNIKDTYIHWVRQAPGKGLEWMGRIDPDNGETLYASKFQGRVTMTADTSINTAYMELSRLRSDDTAVYYCGRGYGKYVFDHWGQGTTVTVSS VL: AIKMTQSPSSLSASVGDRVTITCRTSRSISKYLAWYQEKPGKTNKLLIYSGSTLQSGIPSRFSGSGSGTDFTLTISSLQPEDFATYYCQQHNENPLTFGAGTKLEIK
a: 80600

q: Record: XENP26240 (antibody, V domains shown, also called OKT8_H2.163_L1.103 one-arm mAb) VH: QVQLVQSGAEVKKPGASVKVSCKASGFNIKDTYIHWVRQAPGKGLEWMGRIDPDNDETLYASKFQGRVTITADTSINTAYMELSRLRSDDTAVYYCGRGWGYYVFDHWGQGTTVTVSS VL: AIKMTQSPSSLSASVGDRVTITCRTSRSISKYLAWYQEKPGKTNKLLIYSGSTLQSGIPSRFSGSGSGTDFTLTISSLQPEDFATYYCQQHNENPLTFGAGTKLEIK
a: 298000

q: Record: XENP26237 (antibody, V domains shown, also called OKT8_H2.160_L1.103 one-arm mAb) VH: QVQLVQSGAEVKKPGASVKVSCKASGFNIKDTYIHWVRQAPGKGLEWMGRIDPDNDETLYASKFQGRVTMTADTSINTAYMELSRLRSDDTAVYYCGRGYGYYVFDHWGQGTTVTVSS VL: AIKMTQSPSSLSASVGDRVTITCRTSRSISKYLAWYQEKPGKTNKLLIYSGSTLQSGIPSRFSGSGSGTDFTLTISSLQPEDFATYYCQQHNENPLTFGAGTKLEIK
a: 114000
